# MEASUREMENT_TARGET: mouse TRPM3α2 (mTRPM3) ion channel (Mus musculus)
# Sequence (J9SQF3 1-1709 isoform J9SQF3-12): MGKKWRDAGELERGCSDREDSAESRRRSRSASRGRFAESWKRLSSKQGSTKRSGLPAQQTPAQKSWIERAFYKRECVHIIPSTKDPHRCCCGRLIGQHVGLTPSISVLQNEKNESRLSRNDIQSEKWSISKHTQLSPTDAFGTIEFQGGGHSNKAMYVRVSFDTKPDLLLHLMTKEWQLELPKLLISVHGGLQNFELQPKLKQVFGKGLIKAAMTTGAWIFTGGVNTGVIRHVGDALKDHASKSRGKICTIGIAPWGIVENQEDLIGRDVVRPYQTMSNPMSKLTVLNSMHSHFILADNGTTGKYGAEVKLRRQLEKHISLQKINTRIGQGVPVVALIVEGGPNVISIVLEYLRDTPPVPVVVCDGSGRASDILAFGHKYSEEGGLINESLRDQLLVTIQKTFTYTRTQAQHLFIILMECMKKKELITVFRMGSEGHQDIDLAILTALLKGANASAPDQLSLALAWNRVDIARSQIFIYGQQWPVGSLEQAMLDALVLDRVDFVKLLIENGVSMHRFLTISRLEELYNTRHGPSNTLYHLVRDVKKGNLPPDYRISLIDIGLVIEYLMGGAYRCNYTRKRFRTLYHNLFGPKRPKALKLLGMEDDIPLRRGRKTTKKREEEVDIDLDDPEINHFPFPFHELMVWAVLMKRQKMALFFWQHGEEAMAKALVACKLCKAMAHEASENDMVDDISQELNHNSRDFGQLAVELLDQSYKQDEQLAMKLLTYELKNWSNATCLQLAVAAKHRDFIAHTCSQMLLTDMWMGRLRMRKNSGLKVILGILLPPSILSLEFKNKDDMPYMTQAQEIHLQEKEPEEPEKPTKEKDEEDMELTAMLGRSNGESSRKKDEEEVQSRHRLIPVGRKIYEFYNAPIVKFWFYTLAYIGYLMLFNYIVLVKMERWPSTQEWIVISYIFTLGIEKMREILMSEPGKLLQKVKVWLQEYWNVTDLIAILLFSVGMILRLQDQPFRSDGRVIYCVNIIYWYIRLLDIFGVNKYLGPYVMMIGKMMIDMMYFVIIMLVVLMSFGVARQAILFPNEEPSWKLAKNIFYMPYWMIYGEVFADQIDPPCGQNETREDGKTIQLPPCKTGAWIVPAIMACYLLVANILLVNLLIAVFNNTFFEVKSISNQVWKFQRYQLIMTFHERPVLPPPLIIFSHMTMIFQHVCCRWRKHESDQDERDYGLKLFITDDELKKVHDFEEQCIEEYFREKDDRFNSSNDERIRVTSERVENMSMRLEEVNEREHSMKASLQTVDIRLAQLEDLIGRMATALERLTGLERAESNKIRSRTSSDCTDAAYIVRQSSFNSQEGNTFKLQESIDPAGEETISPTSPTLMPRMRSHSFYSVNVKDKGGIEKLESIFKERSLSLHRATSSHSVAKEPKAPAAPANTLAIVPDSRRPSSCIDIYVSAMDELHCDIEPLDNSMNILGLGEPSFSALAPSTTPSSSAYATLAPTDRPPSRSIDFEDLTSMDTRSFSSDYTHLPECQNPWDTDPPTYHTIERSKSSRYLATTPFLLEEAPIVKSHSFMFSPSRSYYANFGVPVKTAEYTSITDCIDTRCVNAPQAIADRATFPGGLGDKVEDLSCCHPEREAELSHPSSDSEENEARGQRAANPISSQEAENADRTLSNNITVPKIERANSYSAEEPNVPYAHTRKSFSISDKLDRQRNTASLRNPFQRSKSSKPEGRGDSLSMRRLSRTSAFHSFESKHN
# PROCEDURE_TEXT: Monitoring the TRPM3 ion channel driven Ca2+ uptake (Fluo-4 AM assay)
# TEST_CONTEXT: TRPM3 overexpressing flip-in HEK293 cells, channel stimulated with Pregnenolone sulfate (PS) 50 μM
RECORDED_ENDPOINT: IC50

>>> result("Cc1sc2ccc(OCc3ccccn3)cc2c1C(=O)NC1(CO)CCOCC1")
"1 to 20 µM"
>>> result("Cc1sc2ccc(OCc3cccnc3C(F)(F)F)cc2c1C(=O)NC1CN(C)CC1(F)F (centres unmarked)")
"< 1 µM"
>>> result("COc1ncccc1COc1ccc2sc(C)c(C(=O)NC3(CO)CCOCC3)c2c1")
"1 to 20 µM"
>>> result("Cc1sc2ccc(OCc3ccccc3)cc2c1C(=O)NC(C)(C)C(N)=O")
"< 1 µM"
>>> result("Cc1sc2ccc(OCC3CCOCC3)cc2c1C(=O)NC(C)(CO)C(N)=O (single isomer, unassigned) [Cpd 067 - En1]")
"> 20 µM"
>>> result("Cc1sc2ccc(OCc3ccccc3F)cc2c1C(=O)NC1(C(N)=O)COC1")
"< 1 µM"
>>> result("Cc1ncsc1COc1ccc2sc(C)c(C(=O)NC(C)(C)C(N)=O)c2c1")
"< 1 µM"
>>> result("Cc1sc2ccc(OCc3cccnc3C(F)(F)F)cc2c1C(=O)NCc1cccc(O)n1")
"< 1 µM"
>>> result("CN(C)C1(CNC(=O)c2c(C(F)F)sc3ccc(OCc4ccccc4)cc23)CCCC1")
"1 to 20 µM"
>>> result("Cc1sc2ccc(OCc3ccccc3F)cc2c1C(=O)N[C@@H](C)C(N)=O")
"< 1 µM"
>>> result("CC(C)(CNC(=O)c1c(C(F)F)sc2ccc(OCc3ccccc3)cc12)N1CCOCC1")
"1 to 20 µM"
>>> result("Cc1sc2ccc(OCC3CC3)cc2c1C(=O)NC(C)(CO)CO")
"< 1 µM"
>>> result("Cc1sc2ccc(OCc3ccccc3)cc2c1C(=O)Nc1ccn(C)n1")
"< 1 µM"
>>> result("CN(C)CCNC(=O)c1c(C(F)F)sc2ccc(OCc3ccccc3)cc12")
"1 to 20 µM"
>>> result("Cc1ncc(COc2ccc3sc(C)c(C(=O)N[C@@H](CO)C(N)=O)c3c2)s1")
"< 1 µM"
>>> result("Cc1sc2ccc(OCc3ccccn3)cc2c1C(=O)N[C@H](CO)C(N)=O")
"< 1 µM"
>>> result("Cc1sc2ccc(OCc3ccccc3)cc2c1C(=O)N[C@H](C)C(N)=O")
"< 1 µM"
>>> result("O=C(NC1CCOC1)c1c(C(F)F)sc2ccc(OCc3ccccc3)cc12 (centres unmarked)")
"1 to 20 µM"
>>> result("Cc1sc2ccc(OCc3ccccc3)cc2c1C(=O)NCCN1CCOC1=O")
"1 to 20 µM"
>>> result("Cc1sc2ccc(OCc3cccnc3C(F)(F)F)cc2c1C(=O)N[C@@H](C)C(N)=O")
"< 1 µM"
>>> result("Cc1sc2ccc(OCc3ccccc3)cc2c1C(=O)NCC1(N(C)C)CCCC1")
"< 1 µM"
>>> result("Cc1ncsc1COc1ccc2sc(C)c(C(=O)NC3(C(N)=O)COC3)c2c1")
"< 1 µM"
>>> result("Cc1sc2ccc(OCc3ccccc3F)cc2c1C(=O)N[C@@H](CO)C(N)=O")
"< 1 µM"
>>> result("Cc1sc2ccc(OCC3COC3)cc2c1C(=O)NC(C)(CO)C(N)=O (single isomer, unassigned) [Cpd 068 - En1]")
"> 20 µM"
>>> result("O=C(NC1CC(F)(F)C1)c1c(C(F)F)sc2ccc(OCc3ccccc3)cc12")
"> 20 µM"
>>> result("Cc1sc2ccc(OCc3ccccc3F)cc2c1C(=O)NC1CCNCC1(F)F (single isomer, unassigned) [Cpd 095 - En2]")
"1 to 20 µM"
>>> result("Cc1nc(COc2ccc3sc(C)c(C(=O)NC(C)(CO)C(N)=O)c3c2)cs1 (single isomer, unassigned) [Cpd 015 - En1]")
"< 1 µM"
>>> result("Cc1ncsc1COc1ccc2sc(C)c(C(=O)NC3CCNCC3(F)F)c2c1 (single isomer, unassigned) [Cpd 042 - En1]")
"< 1 µM"
>>> result("Cc1ncsc1COc1ccc2sc(C)c(C(=O)NCCN3CCOC3=O)c2c1")
"1 to 20 µM"
>>> result("Cc1sc2ccc(OCC3CCOCC3)cc2c1C(=O)NC(C)(CO)C(N)=O (single isomer, unassigned) [Cpd 067 - En2]")
"1 to 20 µM"
>>> result("COc1ncccc1COc1ccc2sc(C)c(C(=O)N[C@@H](C)C(N)=O)c2c1")
"< 1 µM"
>>> result("Cc1ncsc1COc1ccc2sc(C)c(C(=O)NC3CCOC3)c2c1 (centres unmarked)")
"< 1 µM"
>>> result("Cc1ncc(COc2ccc3sc(C)c(C(=O)N[C@H](C)C(N)=O)c3c2)s1")
"< 1 µM"
>>> result("COc1ncccc1COc1ccc2sc(C)c(C(=O)NC3(CO)CCC3)c2c1")
"< 1 µM"
>>> result("Cc1ncsc1COc1ccc2sc(C)c(C(=O)NCC(C)(C)O)c2c1")
"< 1 µM"
